Hello, the source for this data is patent US20210284747A1, in case you need it.

Target: Full length LIGHT S194A on HEK293FF cells (Homo sapiens (Human), UniProt O43557 1-240)
Sequence (O43557 whole entry S194A): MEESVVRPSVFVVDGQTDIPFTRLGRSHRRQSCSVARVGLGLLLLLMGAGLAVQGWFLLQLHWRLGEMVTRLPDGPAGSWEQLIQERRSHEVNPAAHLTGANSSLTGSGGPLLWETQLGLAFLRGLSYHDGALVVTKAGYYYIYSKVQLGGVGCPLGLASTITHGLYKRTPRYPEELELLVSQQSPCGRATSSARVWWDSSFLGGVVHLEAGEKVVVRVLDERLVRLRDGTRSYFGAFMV
Assay: flow cytometry, HEK293FF, mAb at EC50
Assay endpoint: % of WT binding (%)
Field: numeric (%). Do not append units.

For orientation, consider the following solved cases.
Binder	Measured value
3D12 chimeric IgG4 mAb (antibody, V domains shown, Chimeric human IgG4 (S-to-P, L-to-E) with human CL, as m1; also called Parental 3D12; 03D12) VH: QVQLQQPGAELVRPGASVTLSCKASDYTFTDSEIHWVKQTPVHGLEWIGEIDPETGGTAYNQKFKGKATLTADKSSSTAYMELRSLTSEDSAVYYCSRETDYFFDYWGQGTTLTVSS VL: DIQMTQSPASLSASVGETVTITCGASENIYGALNWYQRKQGKSPQLLIYGATNLADGMSSRFSGSGSGRQYSLKISSLHPDDVATYYCQNVLSTPWTFGGGTKLEIK	2
2E08 chimeric IgG4 mAb (antibody, V domains shown, Chimeric human IgG4 (S-to-P, L-to-E) with human CL, as m1; also called Parental 2E08) VH: QVQMKESGAELVRPGVSVKISCKGSGYTFTDYAIHWVKQSHAKTLEWIGVISTYYGDASYNQKFKGKATMTVDKSSSTAYMELARLTSDDSAIYYCARSRGEYGNYDAMDYWGQGTSVTVSS VL: DIVLTQSPASLAVSLGQRATISCKASQSVDYDGDSYMNWYQQKPGQPPKLLIYAASNLESGIPARFSGSGSGTDFTLNIHPVEEEDAATYYCQQSNEDPLTFGAGTKLELK	3
3C10 chimeric IgG4 mAb (antibody, V domains shown, Chimeric human IgG4 (S-to-P, L-to-E) with human CL, as m1; also called Parental 3C10) VH: EVQLQQSGAELVRPGASVTLSCKASDYTFTDSEIHWVKQTPVHGLEWIGEIDPETGGTAYNQKFKGKATLTADKSSSTAYMELRSLTSEDSAVYYCSRETDYFFDYWGQGTTLTVSS VL: DVVMTQTPAIMSASPGEKVTMTCSASSSVSYMYWYQQKPGSSPRLLIYDTSNLASGVPVRFSGSGSGTSYSLTISRMEAEDAATYYCQQWSSYPLTFGAGTKLELK	0

Need % of WT binding, item 3E09 chimeric IgG4 mAb (antibody, V domains shown, Chimeric human IgG4 (S-to-P, L-to-E) with human CL, as m1; also called Parental 3E09) VH: EVQLVESGGGLVKPGGSLKLSCEASGFTFSDYYMYWVRQTPEKRLEWVAAIGDGGIYTYYADTVKGRFTISRDNAKNILYLQMSSLKSNDTAMYYCARGTGDGFAYWGQGTLVTVS VL: DIVLTQSPASLAVSLGQRATISCRASESVDSYGNSFMHWYQQKPGQPPKLLIYLASNLESGVPARFSGSGSRTDFTLTIDPVEADDAATYYCQQNNEDPYTFGGGTKLEIK
1
